Tested on: Proteus vulgaris
ASSAY: standard disc-plate assay
Format: cell-based
CONDITION INFO: read-out: Zone Diameters
METRIC: zone of inhibition at 100 µg/mL (mm)
# unit: mm | format: bare number

Examples from the recorded data:
[C-]#[N+]C(=CC1=C[C@@H](O)[C@H](O)CC1)C(=CC1CCC(O)CC1)[N+]#[C-] (relative stereo): 26
[C-]#[N+]C(=CC1=C[C@@H](OC)[C@@H](O)CC1)C(=CC1CCC(OC(=O)C=C(C)C)CC1)[N+]#[C-] (relative stereo): 22
[C-]#[N+]C(=CC1=C[C@@H](O)[C@@H](O)CC1)C(=CC1CCC(OC(=O)C=C(C)C)CC1)[N+]#[C-] (relative stereo): 21
[C-]#[N+]C(=CC1=C[C@@H](O)[C@H](O)CC1)C(=CC1CCC(OC(=O)C=C(C)C)CC1)[N+]#[C-] (relative stereo): 24

With those in mind, consider the next compound.
Prompt: Find the measured zone of inhibition at 100 µg/mL of [C-]#[N+]C(=CC1CCC(OC(=O)CC(C)C)CC1)C(=CC1(OC(C)=O)C=CC(O)CC1)[N+]#[C-] (centres unmarked) and report it.
Completion: 19

# credit: patent US4537777A
